# study_target: Cyclin-dependent kinase 2/cyclin E (Homo sapiens) (UniProt P24864+P24941+O96020)
# protocol_summary: Inhibition of CDK2/Cyclin E (unknown origin) at 500 nM
# Type: protein-complex assay
Binary classification by inhibition, with 50% as an inclusive lower bound for 1 (yes); all other cases are 0 (no).

> print(dat)
                                   molecule                              study.target    group
1  C[C@@]1(O)CCC[C@H]1n1c(=O)c(C(F)F)cc2cnc(NC3CCN(S(C)(=O)=O)CC3)nc21 [EBVACICLIB]  Cyclin-dependent kinase 2/cyclin E (Homo sapiens) (UniProt P24864+P24941+O96020)  1 (yes)
2  CCC(C)n1c(=O)c(O)nc2cnc(NC3CCN(S(C)(=O)=O)CC3)nc21 (stereo not drawn)  Cyclin-dependent kinase 2/cyclin E (Homo sapiens) (UniProt P24864+P24941+O96020)   0 (no)
3  CCC(C)n1c(=O)c(OC)nc2cnc(NC3CCN(S(C)(=O)=O)CC3)nc21 (stereo not drawn)  Cyclin-dependent kinase 2/cyclin E (Homo sapiens) (UniProt P24864+P24941+O96020)  1 (yes)
4  CNc1nc2cnc(NC3CCN(S(C)(=O)=O)CC3)nc2n(C2CCCC2)c1=O  Cyclin-dependent kinase 2/cyclin E (Homo sapiens) (UniProt P24864+P24941+O96020)   0 (no)
5  CS(=O)(=O)c1ccc(Nc2ncc3nc(NN)c(=O)n(C4CCCC4)c3n2)cc1  Cyclin-dependent kinase 2/cyclin E (Homo sapiens) (UniProt P24864+P24941+O96020)  1 (yes)
6  CN(C)S(=O)(=O)N1CCC(Nc2nc3cnc(NN)nc3n(C3CCCC3)c2=O)CC1  Cyclin-dependent kinase 2/cyclin E (Homo sapiens) (UniProt P24864+P24941+O96020)   0 (no)
7  CS(=O)(=O)N1CCC(Nc2nc3cnc(NCC(F)F)nc3n(C3CCCC3)c2=O)CC1  Cyclin-dependent kinase 2/cyclin E (Homo sapiens) (UniProt P24864+P24941+O96020)   0 (no)
8  CS(=O)(=O)c1ccc(Nc2ncc3c(n2)n(C2CCCC2)c(=O)c2nncn23)cc1  Cyclin-dependent kinase 2/cyclin E (Homo sapiens) (UniProt P24864+P24941+O96020)   0 (no)
